Tested on: PPARa:RXRa (NR concentration 270 nM, RXRa partner concentration 90 nM)
Test: PBM binding z-score (relative to random genomic background probes); higher = stronger binding; sequences stand for … in GC…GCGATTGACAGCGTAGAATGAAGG
Threshold check on PBM binding z-score: at or above 1 gives class 1, strictly below gives class 0.

> print(dat)
                      sequence.string  category.label
1  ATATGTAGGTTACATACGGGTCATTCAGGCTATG         class 1
2  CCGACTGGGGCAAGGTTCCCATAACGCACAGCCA         class 1
3  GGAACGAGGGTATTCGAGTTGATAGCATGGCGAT         class 0
4  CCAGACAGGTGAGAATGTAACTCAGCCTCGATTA         class 0

Task item: Textbook exercise: given the entry `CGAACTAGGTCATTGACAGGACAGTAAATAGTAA` , state whether its PBM binding z-score is greater than or equal to 1.
Reply: class 1

Task item: Textbook exercise: given the entry `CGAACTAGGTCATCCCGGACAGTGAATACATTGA` , state whether its PBM binding z-score is greater than or equal to 1.
Reply: class 1

====

Test system: RXRa homodimer (NR concentration 180 nM)
Assay: PBM binding z-score (relative to random genomic background probes); higher = stronger binding; sequences stand for … in GC…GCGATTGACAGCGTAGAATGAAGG
PBM binding z-score values for the sequences below.
Keep the answer to the number alone.

Use these answered entries as a reference point.
> print(dat)
                      sequence.string  readout.number
1  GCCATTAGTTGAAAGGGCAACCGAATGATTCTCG            1.24
2  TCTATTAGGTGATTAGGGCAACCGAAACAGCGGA           0.927
3  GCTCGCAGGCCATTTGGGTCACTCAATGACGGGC           0.671
4  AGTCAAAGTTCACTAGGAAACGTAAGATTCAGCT            3.71

Task item: Return reported PBM binding z-score. Input sequence: `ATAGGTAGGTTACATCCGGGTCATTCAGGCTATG`
Reply: 2.96

Task item: Return reported PBM binding z-score. Input sequence: `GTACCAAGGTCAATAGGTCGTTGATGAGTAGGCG`
Reply: 5.66

====

PBM binding z-score values for the sequences below.
Test system: LXRa:RXRa (NR concentration 270 nM, RXRa partner concentration 90 nM)
Assay: PBM binding z-score (relative to random genomic background probes); higher = stronger binding; sequences stand for … in GC…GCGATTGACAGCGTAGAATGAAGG

> print(dat)
                      sequence.string  result
1  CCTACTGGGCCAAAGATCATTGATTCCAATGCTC  -0.527
2  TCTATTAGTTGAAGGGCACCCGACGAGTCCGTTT   0.953
3  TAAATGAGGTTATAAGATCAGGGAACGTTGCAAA    2.28

Task item: Return reported PBM binding z-score. Input sequence: `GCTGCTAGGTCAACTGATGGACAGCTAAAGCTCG`
Reply: 2.38

Task item: Return reported PBM binding z-score. Input sequence: `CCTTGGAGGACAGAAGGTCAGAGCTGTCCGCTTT`
Reply: 1.83

Task item: Return reported PBM binding z-score. Input sequence: `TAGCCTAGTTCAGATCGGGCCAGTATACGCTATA`
Reply: -0.351
